Origin of values: patent US20050261472A1

Entries and their measured pKd follow.
# assayed.target: DD(E) (Homo sapiens, UniProt P02671+P02675+P02679)
# Construct: host or cells: purchased fibrinogen clotted with thrombin, digested with plasmin, then purified by ammonium sulfate cuts and Sephacryl S200
# Sequence (P02671 130-216): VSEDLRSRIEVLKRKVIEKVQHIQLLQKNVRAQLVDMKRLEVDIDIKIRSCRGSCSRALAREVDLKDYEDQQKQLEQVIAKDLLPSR
# Sequence (P02675 164-491): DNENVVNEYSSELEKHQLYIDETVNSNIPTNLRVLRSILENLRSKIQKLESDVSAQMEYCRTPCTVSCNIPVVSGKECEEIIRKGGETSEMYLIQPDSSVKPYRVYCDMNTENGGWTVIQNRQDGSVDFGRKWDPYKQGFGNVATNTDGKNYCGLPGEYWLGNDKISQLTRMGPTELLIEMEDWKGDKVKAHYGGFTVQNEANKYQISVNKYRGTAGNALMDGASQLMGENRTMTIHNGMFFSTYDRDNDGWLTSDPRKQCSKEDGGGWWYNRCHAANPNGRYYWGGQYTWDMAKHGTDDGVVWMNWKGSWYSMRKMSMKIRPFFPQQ
# Sequence (P02679 114-432): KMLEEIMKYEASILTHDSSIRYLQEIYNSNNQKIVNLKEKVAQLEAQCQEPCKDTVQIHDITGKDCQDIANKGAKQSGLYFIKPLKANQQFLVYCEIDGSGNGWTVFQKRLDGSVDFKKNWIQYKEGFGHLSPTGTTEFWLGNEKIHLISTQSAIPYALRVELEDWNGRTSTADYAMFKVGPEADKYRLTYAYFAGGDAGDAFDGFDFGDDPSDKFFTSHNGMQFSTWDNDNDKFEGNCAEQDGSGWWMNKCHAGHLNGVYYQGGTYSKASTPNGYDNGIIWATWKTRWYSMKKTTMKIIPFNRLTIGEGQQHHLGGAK
# Sequence (P02671 36-97): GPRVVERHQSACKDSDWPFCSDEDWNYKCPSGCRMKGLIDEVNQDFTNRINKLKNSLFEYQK
# Sequence (P02675 45-152): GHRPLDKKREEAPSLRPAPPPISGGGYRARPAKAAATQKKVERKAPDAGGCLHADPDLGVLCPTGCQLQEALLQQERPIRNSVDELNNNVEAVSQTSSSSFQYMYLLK
# Sequence (P02679 27-88): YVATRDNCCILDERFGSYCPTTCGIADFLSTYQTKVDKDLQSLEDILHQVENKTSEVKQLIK
# run.description: dissociation constant against fibrin-derived polypeptide DD(E)
# Format: binding
# condition.summary: read-out: Kd DD(E)
Bridge positions count the residues as written; N and C are the ends. Peptide text beside a SMILES is read from it.
When answering, recall that pKd equals minus log10 of the concentration in mol/L, and write that number alone.

{"compound": "CC[C@H](C)[C@H](NC(=O)[C@H](Cc1c[nH]cn1)NC(=O)[C@@H]1CSSC[C@H](NC(=O)[C@@H](N)Cc2c[nH]cn2)C(=O)N2CCC[C@H]2C(=O)N[C@@H](Cc2ccc(O)cc2)C(=O)N[C@@H](CC(=O)O)C(=O)N[C@@H](CC(C)C)C(=O)N1)C(=O)N[C@@H](CC(C)C)C(N)=O [SEQ ID NO: 59, HCPYDLCHIL] (H-HCPYDLCHIL-NH2; disulfide 2-7)", "result.number": 5.42}

Shift focus to the following entry.
Tell us which pKd value is on record for CC(C)C[C@H](NC(=O)[C@@H]1CSSC[C@H](NC(=O)[C@@H]2CCCN2C(=O)[C@@H](N)CC(C)C)C(=O)N[C@@H](CO)C(=O)N[C@@H](Cc2ccc(O)cc2)C(=O)N[C@@H](Cc2ccc(O)cc2)C(=O)NCC(=O)N[C@@H]([C@@H](C)O)C(=O)N1)C(=O)N[C@@H](Cc1c[nH]cn1)C(N)=O [SEQ ID NO: 12, LPCSYYGTCLH] (H-LPCSYYGTCLH-NH2; disulfide 3-9)
5.01

###

# assayed.target: DD(E) (Homo sapiens, UniProt P02671+P02675+P02679)
# Construct: host or cells: purchased fibrinogen clotted with thrombin, digested with plasmin, then purified by ammonium sulfate cuts and Sephacryl S200
# run.description: dissociation constant against fibrin-derived polypeptide DD(E)
# Assay type: binding
# condition.summary: read-out: Kd DD(E)
measure: Kd

Let me know recorded Kd for H-LPSDYYGTSLD-NH2 [compound 38] , thanks.
> 100 µM
